Give Css for every item shown.
- protocol_summary: IVIVE: steady-state concentration (Css), generic HTTK model
- Parameters: species or system human
- run_parameters: human steady-state concentration, 1 mg/kg/day exposure rate, loss of parent compound only
- Procedure: IVIVE was performed as previously described to calculate human steady-state concentrations (Css). Briefly, experimental plasma protein binding data presented elsewhere were transformed to fraction unbound in blood using blood-to-plasma partitioning values. Experimental Clint values generated here are used in conjunction with relevant liver scalars to scale up to estimate whole liver clearance. […]
Numbers only, in µM.

Worked set:
O=S(=O)(O)C(F)(F)C(F)(F)C(F)(F)C(F)(F)C(F)(F)C(F)(F)C(F)(F)C(F)(F)F [PFOS, Perfluorooctanesulfonic acid]
98.52
O=C(O)CCC(F)(F)C(F)(F)C(F)(F)C(F)(F)C(F)(F)C(F)(F)F [6:3 FTCA, 6:3 Fluorotelomer carboxylic acid]
30.01

Now for a further compound.
Enquiry: Fill in: Css of O=C(O)C(F)(F)C(F)(F)C(F)(F)C(F)(F)C(F)(F)C(F)(F)F [PFHpA, Perfluoroheptanoic acid] is ___
Return: 1657.68

###

- protocol_summary: IVIVE: steady-state concentration (Css), generic HTTK model
- Set-up: species or system human
- run_parameters: scaled to whole liver: HPGL 110 mill cells/g, Vl 1596 g
Give CLint for every item shown.
One number for each entry, in µL/min.

O=P(O)(O)CCC(F)(F)C(F)(F)C(F)(F)C(F)(F)C(F)(F)C(F)(F)F
0

Consider the following items and state reported CLint for each.
1. O=S(=O)([O-])C(F)(F)C(F)(F)C(F)(F)C(F)(F)C(F)(F)C(F)(F)C(F)(F)C(F)(F)C(F)(F)C(F)(F)F.[Na+] [Sodium perfluorodecanesulfonate (NaPFDS)]
2. O=C(O)C(F)(F)C(F)(F)C(F)(F)C(F)(F)C(F)(F)C(F)(F)C(F)(F)C(F)(F)F
3. O=C(O)CCC(F)(F)C(F)(F)C(F)(F)F
4. O=C(O)C(F)(F)C(F)(F)C(F)(F)C(F)(F)C(F)(F)C(F)(F)C(F)(F)C(F)(F)C(F)(F)F

Return:
1. 0
2. 0
3. 0
4. 0

Consider the following items and state reported CLint for each.
1. O=S(=O)(O)C(F)(F)C(F)(F)OC(F)(F)C(F)(F)F
2. O=C([O-])C(F)(F)C(F)(F)C(F)(F)C(F)(F)C(F)(F)C(F)(F)C(F)(F)F.[K+] [Potassium perfluorooctanoate (KPFOA)]
3. O=S(=O)([O-])C(F)(F)C(F)(F)C(F)(F)C(F)(F)F.[K+]
4. O=C(O)C(F)(F)C(F)(F)C(F)(F)C(F)(F)C(F)(F)C(F)(F)C(F)F

Return:
1. 967336
2. 0
3. 0
4. 0

Consider the following items and state reported CLint for each.
1. O=S(=O)(O)CCC(F)(F)C(F)(F)C(F)(F)C(F)(F)C(F)(F)C(F)(F)C(F)(F)C(F)(F)F
2. O=C(O)C(F)(F)C(F)(F)C(F)F
3. O=S(=O)(O)C(F)(F)C(F)(F)C(F)(F)C(F)(F)C(F)(F)C(F)(F)C(F)(F)C(F)(F)F [Perfluorooctane sulfonate (PFOS)]
4. O=C(O)C=CC(F)(C(F)(F)F)C(F)(F)F

Return:
268607
0
0
0

Consider the following items and state reported CLint for each.
1. O=C(O)C(F)(F)C(F)(F)F
2. O=C(O)C(F)(F)C(F)(F)C(F)(F)F
3. O=C(O)C(F)(F)C(F)(F)C(F)(F)C(F)(F)C(F)(F)C(F)(F)C(F)(F)C(F)(F)C(F)(F)C(F)(F)C(F)(F)C(F)(F)C(F)(F)F
4. O=C(O)CCC(F)(F)C(F)(F)C(F)(F)C(F)(F)C(F)(F)F
5. CNS(=O)(=O)C(F)(F)C(F)(F)C(F)(F)C(F)(F)C(F)(F)C(F)(F)C(F)(F)C(F)(F)F
6. O=S(=O)(O)C(F)(F)C(F)(F)C(F)(F)C(F)(F)F
7. O=C(O)C(F)(F)C(F)(F)C(F)(F)C(F)(F)C(F)(F)C(F)(F)C(F)(F)C(F)(F)C(F)(F)C(F)F
8. O=C(O)C(F)(F)C(F)(F)C(F)(F)OC(F)(F)F

Return:
1: 0; 2: 0; 3: 0; 4: 2078630; 5: 4078259; 6: 833910; 7: 0; 8: 263340

Consider the following items and state reported CLint for each.
1. O=S(=O)(Cl)C(F)(F)C(F)(F)C(F)(F)C(F)(F)C(F)(F)C(F)(F)C(F)(F)C(F)(F)F
2. NS(=O)(=O)C(F)(F)C(F)(F)C(F)(F)C(F)(F)C(F)(F)C(F)(F)F [Perfluorohexanesulfonamide (PFHxSA)]
3. O=C(O)C(F)(F)OC(F)(F)C(F)(F)OC(F)(F)C(F)(F)OC(F)(F)F
4. O=S(=O)(O)CCC(F)(F)C(F)(F)C(F)(F)C(F)(F)C(F)(F)C(F)(F)F
5. O=C(O)C(F)(F)C(F)(F)C(F)(F)C(F)(F)C(F)(F)C(F)(F)C(F)(F)C(F)F

Return:
1. 0
2. 0
3. 0
4. 245784
5. 0

Consider the following items and state reported CLint for each.
1. O=S(=O)(O)C(F)(F)C(F)(F)C(F)(F)C(F)(F)C(F)(F)C(F)(F)F
2. O=C(O)C(F)(F)C(F)(F)C(F)(F)C(F)(F)F
3. O=C(O)CCC(F)(F)C(F)(F)C(F)(F)C(F)(F)C(F)(F)C(F)(F)F

Return:
1. 0
2. 0
3. 886578
